tested on: Escherichia coli; assay: Antibacterial activity against Escherichia coli ATCC 35218 after 24 hrs by MTT assay; type: functional; details: ATCC 35218, 24 h
MIC strictly less than 10 µg/mL = fulfilled. Otherwise not fulfilled.

Examples with answers:
INSERT INTO assay_data (molecular_string, cat) VALUES
  ('Oc1ccccc1/C=N/c1ccc(NC(=S)Nc2ccccc2)cc1', 'not fulfilled'),
  ('S=C(Nc1ccccc1)Nc1ccc(/N=C/c2ccc(OCc3ccccc3)cc2)cc1', 'fulfilled'),
  ('Fc1ccc(/C=N/c2ccc(NC(=S)Nc3ccccc3)cc2)cc1', 'not fulfilled'),
  ('NC[C@H]1O[C@H](O[C@H]2[C@H](O)[C@@H](O[C@H]3O[C@H](CO)[C@@H](O)[C@H](N)[C@H]3O)[C@H](N)C[C@@H]2N)[C@H](N)[C@@H](O)[C@@H]1O', 'fulfilled');

Now for another entry.
stdin: Please indicate whether the reported MIC of S=C(Nc1ccccc1)Nc1ccccc1/N=C/c1ccc(Br)cc1 is strictly below 10 µg/mL.
stdout: not fulfilled
